Every entry's value here was drawn from paper PMC10692723.

# Study system: 6His-tagged MSN FERM domain (residues 1-345), wild type (human, UniProt P26038 1-345)
# Sequence (P26038 1-345): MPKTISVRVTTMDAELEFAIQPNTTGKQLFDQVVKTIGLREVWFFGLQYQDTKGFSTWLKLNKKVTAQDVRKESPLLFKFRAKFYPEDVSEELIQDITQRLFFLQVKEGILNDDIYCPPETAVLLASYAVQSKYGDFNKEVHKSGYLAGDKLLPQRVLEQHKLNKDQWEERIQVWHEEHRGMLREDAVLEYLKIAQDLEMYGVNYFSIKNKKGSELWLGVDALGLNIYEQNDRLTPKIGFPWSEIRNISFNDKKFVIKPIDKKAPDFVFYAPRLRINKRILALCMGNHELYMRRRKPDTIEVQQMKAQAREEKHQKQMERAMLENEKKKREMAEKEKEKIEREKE
# Method notes: FRET or BRET
pEC50: −log10 of the molar value.
Measurement name: pEC50

Inquiry: Please report the recorded pEC50 for EDGGSSWEYIWTLPSG [C3S1-pd peptide] .
Reply text: ~6.89
